# tgt: T1, MPDZ_10, O75970
# T1 sequence (O75970 1624-1722, limits assumed, looked up): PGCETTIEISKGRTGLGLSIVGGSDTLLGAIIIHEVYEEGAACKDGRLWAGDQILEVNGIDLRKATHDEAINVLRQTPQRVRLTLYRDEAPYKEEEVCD
# assay_method_text: holdup assay
# Parameters: key: below the threshold = too weak to quantify, mostly under pKd 3.1 to 4
# experimental_setup: plain residues with an end cap or a label only (N-terminal biotin on a linker: ado-ado)
measure_name: pKd

Answered cases to consult:
In [3]: df
Out[3]:
                         binder               result
0    NKSEPFLTWL [WWTR1, Q9GZV5]  below the threshold
1  ADEMICITTL [CACNA1D, Q01668]  below the threshold
2   HYPASPDSWV [CTNND2, Q9UQB3]  below the threshold
3      SQPLLVHDDV [KIT, P10721]                 3.93

Q: For the binder shown here, PDSYHRRDFW [U2AF2, P26368] , give the reported pKd.
A: below the threshold
